# system under test: D(1A) dopamine receptor (Homo sapiens, UniProt P21728)
# Sequence (P21728 whole entry): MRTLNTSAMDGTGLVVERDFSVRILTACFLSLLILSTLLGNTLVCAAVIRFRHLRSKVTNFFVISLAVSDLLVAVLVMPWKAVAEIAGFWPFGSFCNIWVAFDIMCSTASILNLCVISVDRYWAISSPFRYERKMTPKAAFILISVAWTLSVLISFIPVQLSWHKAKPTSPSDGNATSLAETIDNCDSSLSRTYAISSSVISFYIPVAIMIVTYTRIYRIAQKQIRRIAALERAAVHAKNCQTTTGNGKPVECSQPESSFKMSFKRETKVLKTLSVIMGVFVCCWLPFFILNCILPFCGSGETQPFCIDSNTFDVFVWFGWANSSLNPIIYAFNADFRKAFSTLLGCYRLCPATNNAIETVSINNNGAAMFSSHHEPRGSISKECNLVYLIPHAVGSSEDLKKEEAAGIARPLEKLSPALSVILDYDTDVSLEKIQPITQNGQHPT
pKi: −log10 of the molar value.
endpoint label: pKi

> print(dat)
                                   compound  reported.measurement
1  CC(CN(C)C)CN1c2ccccc2Sc2ccc(C#N)cc21 (stereo unspecified)                  8.42

* * *

# system under test: 5-hydroxytryptamine receptor 2C (Homo sapiens)
# Sequence (P28335 whole entry): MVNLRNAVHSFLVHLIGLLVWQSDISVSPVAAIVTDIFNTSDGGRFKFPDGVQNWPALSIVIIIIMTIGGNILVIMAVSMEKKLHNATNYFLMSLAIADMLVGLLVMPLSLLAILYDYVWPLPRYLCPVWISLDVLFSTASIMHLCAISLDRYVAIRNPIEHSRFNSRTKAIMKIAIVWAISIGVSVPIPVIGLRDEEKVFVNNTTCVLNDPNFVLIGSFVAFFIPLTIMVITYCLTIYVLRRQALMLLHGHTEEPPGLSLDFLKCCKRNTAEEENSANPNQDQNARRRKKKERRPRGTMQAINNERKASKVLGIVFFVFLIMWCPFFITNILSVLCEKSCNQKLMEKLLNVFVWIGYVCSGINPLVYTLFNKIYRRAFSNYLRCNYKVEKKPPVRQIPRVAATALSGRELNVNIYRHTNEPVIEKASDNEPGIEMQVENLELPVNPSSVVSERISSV
endpoint label: Ki (nM)

> print(dat)
                                   compound                         system.under.test  endpoint.label  unit.name  reported.measurement
1  CC(CN(C)C)CN1c2ccccc2Sc2ccc(C#N)cc21 (stereo unspecified)  5-hydroxytryptamine receptor 2C (Homo sapiens)              Ki         nM                    12
